- run description: BSK_3C_TissueFactor: BioMAP Diversity Plus: 3C Assay for Tissue Factor Biomarker Activity (AID 2282997)
- condition summary: BioMAP 3C HUVEC, tissue factor biomarker readout; actives raise or lower the signal
The source made the active and inactive calls. How the source made its calls: active means hit-call score of the fitted dose curve at least 0.9, where 1 is the maximum; inactive means score below 0.9.
Outcomes: 1 (active), 0 (inactive)

                                    molecule  group
 0                            Cc1occc(=O)c1O      0
 1               CC1=C(C)S(=O)(=O)CCS1(=O)=O      0
 2  O=C(N[C@@H](c1ccccc1)[C@@H]1CCCCN1)c1cccc(C(F)(F)F)c1Cl      1
 3                             c1ccc2occc2c1      0
 4     C#CC(O)C(CC)CCCC (stereo unspecified)      0
 5                            O=C(O)c1cccnc1      0
 6            O=C1O[C@H]([C@H](O)CO)C(O)=C1O      0
 7  CCC(C)N(C)C(=O)c1cc2ccccc2c(-c2ccccc2Cl)n1 (stereo unspecified)      0
 8    O=C(Oc1ccccc1)c1cccc(C(=O)Oc2ccccc2)c1      0
 9  CN(C)C(=O)NC1(c2ccccc2)CCN(CCC[C@]2(c3ccc(Cl)c(Cl)c3)CCCN(C(=O)c3ccccc3)C2)CC1      1
10                        C/C=C/c1ccc(OC)cc1      0
11                                      NC=O      0
12                                Oc1ccccc1O      1
13  O=C(NS(=O)(=O)/C=C/c1cccs1)c1ccc(F)cc1Br      0
14  CCCCc1nc2cccnc2n1Cc1ccc(-c2ccccc2-c2nnn[nH]2)cc1      0
15  CC(C)OC(=O)C(C)(C)Oc1ccc(C(=O)c2ccc(Cl)cc2)cc1      0
16          CN(C)CCCN1c2ccccc2Sc2ccc(Cl)cc21      1
17                  O=C(O)CN(CC(=O)O)CC(=O)O      0
18  COc1ccc(C(=O)Nc2nc3ccccc3c(NCc3ccccc3)c2C#N)cc1      0
19                         CCCCCCCCCCCCCCCCO      0
20                      CC(C)c1cccc(C(C)C)c1      0
21  CC(=O)O[C@]1(C(C)=O)CC[C@H]2[C@@H]3C=C(Cl)C4=CC(=O)[C@@H]5C[C@@H]5[C@]4(C)[C@H]3CC[C@@]21C      0
22                  CCCCOC(=O)CCCCC(=O)OCCCC      0
23                  CCCCCCCCCC[N+](C)(C)[O-]      0
24  Nc1nc(Cl)nc2c1ncn2[C@H]1C[C@H](O)[C@@H](CO)O1      1
25  CS(=O)(=O)c1ccc([C@@H](C[C@H]2CCC(=O)C2)C(=O)Nc2cnccn2)cc1Cl      0

----------
- Read-out: flavin-containing dimethylaniline monooxygenases 3 (FMO3), FMO3 (gene 2328)
- run description: LTEA_HepaRG_FMO3: Life Technologies and Expression Analysis (LTEA) Assay for flavin-containing dimethylaniline monooxygenases 3 (FMO3) using HepaRG (AID 2283453)
- condition summary: mRNA level, 48 h; actives raise or lower the signal
The source made the active and inactive calls. Rule for the calls: active = hit-call score of the fitted dose curve at least 0.9, where 1 is the maximum; inactive = score below 0.9.
readout type: outcome

>>> df
                                   molecule    result
0                    CCCCCCC(C=O)=Cc1ccccc1  inactive
1  CCCCC(CC)COC(=O)CCCCCCCC(=O)OCC(CC)CCCC (stereo not drawn)  inactive
2                           C=CCCCCCCCCCCCC  inactive

Source of measurements: PubChem BioAssay (EPA / NIEHS)
